Can you tell me pIC50 for the items I'm about to list?
# System: SW1271 complex spheroids with HUVEC/MSC, growth, % test/control
# assay.remarks: Anticancer human tumor SW1271 cell line growth inhibition [AhR];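 note: spheroids exposed to agents for 7 days before readout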
# assay.setup: curve of first compound; second compound 10 µM
pIC50: −log10 of the molar value.

pIC50 of CC[C@@]1(O)C(=O)OCc2c1cc1n(c2=O)Cc2cc3c(CN(C)C)c(O)ccc3nc2-1 + CC(CO)NC(=O)c1cc(-c2ccc(Cl)cc2)nn(-c2cnn(C)c2)c1=O on SW1271 complex spheroids with HUVEC/MSC, growth, % test/control?
< 7.00

pIC50 of CC(C)c1c(-c2ccccc2)nc2c(C#N)c[nH]n2c1=O + Cc1cncc(-c2nc(NCCc3c[nH]c4ccccc34)c3ncn(C(C)C)c3n2)c1 on SW1271 complex spheroids with HUVEC/MSC, growth, % test/control?
6.33

pIC50 of Cn1ncnc1C1c2n[nH]c(=O)c3cc(F)cc(c23)NC1c1ccc(F)cc1 (configuration not stated) + CC(CO)NC(=O)c1cc(-c2ccc(Cl)cc2)nn(-c2cnn(C)c2)c1=O on SW1271 complex spheroids with HUVEC/MSC, growth, % test/control?
< 7.00

pIC50 of Nc1ccn(C2OC(CO)C(O)C2(F)F)c(=O)n1 (configuration not stated) + Cc1cncc(-c2nc(NCCc3c[nH]c4ccccc34)c3ncn(C(C)C)c3n2)c1 on SW1271 complex spheroids with HUVEC/MSC, growth, % test/control?
> 7.50

pIC50 of O=C(C=Cn1cnc(-c2cc(C(F)(F)F)cc(C(F)(F)F)c2)n1)NNc1cnccn1 + Cc1cncc(-c2nc(NCCc3c[nH]c4ccccc34)c3ncn(C(C)C)c3n2)c1 on SW1271 complex spheroids with HUVEC/MSC, growth, % test/control?
> 8.02

pIC50 of Cn1ncnc1C1c2n[nH]c(=O)c3cc(F)cc(c23)NC1c1ccc(F)cc1 (configuration not stated) + Cc1ccccc1N=Nc1ccc(NC(=O)c2ccnn2C)c(C)c1 on SW1271 complex spheroids with HUVEC/MSC, growth, % test/control?
< 7.00

pIC50 of Nc1ncn(C2CC(O)C(CO)O2)c(=O)n1 (configuration not stated) + Cc1ccccc1N=Nc1ccc(NC(=O)c2ccnn2C)c(C)c1 on SW1271 complex spheroids with HUVEC/MSC, growth, % test/control?
< 6.00

pIC50 of CC1(C)CCC(CN2CCN(c3ccc(C(=O)NS(=O)(=O)c4ccc(NCC5CCOCC5)c([N+](=O)[O-])c4)c(Oc4cnc5[nH]ccc5c4)c3)CC2)=C(c2ccc(Cl)cc2)C1 + Cc1ccccc1N=Nc1ccc(NC(=O)c2ccnn2C)c(C)c1 on SW1271 complex spheroids with HUVEC/MSC, growth, % test/control?
< 5.00

pIC50 of O=C(c1cc(Cc2n[nH]c(=O)c3ccccc23)ccc1F)N1CCN(C(=O)C2CC2)CC1 + CC(CO)NC(=O)c1cc(-c2ccc(Cl)cc2)nn(-c2cnn(C)c2)c1=O on SW1271 complex spheroids with HUVEC/MSC, growth, % test/control?
< 5.00

pIC50 of Cn1ncnc1C1c2n[nH]c(=O)c3cc(F)cc(c23)NC1c1ccc(F)cc1 (configuration not stated) + Cc1cncc(-c2nc(NCCc3c[nH]c4ccccc34)c3ncn(C(C)C)c3n2)c1 on SW1271 complex spheroids with HUVEC/MSC, growth, % test/control?
< 7.00

pIC50 of COc1cc(C2c3cc4c(cc3C(OC3OC5COC(C)OC5C(O)C3O)C3COC(=O)C23)OCO4)cc(OC)c1O (configuration not stated) + Cc1cncc(-c2nc(NCCc3c[nH]c4ccccc34)c3ncn(C(C)C)c3n2)c1 on SW1271 complex spheroids with HUVEC/MSC, growth, % test/control?
> 7.50

pIC50 of O=C(c1cc(Cc2n[nH]c(=O)c3ccccc23)ccc1F)N1CCN(C(=O)C2CC2)CC1 + Cc1ccccc1N=Nc1ccc(NC(=O)c2ccnn2C)c(C)c1 on SW1271 complex spheroids with HUVEC/MSC, growth, % test/control?
< 5.00
